- Test system: Saccharomyces cerevisiae
- ASSAY DETAILS: protein stability index of tFT-peptide fusion (C-terminal peptide) (PSI (0-1 scale)); higher = more stable (slower turnover)
- EXPERIMENTAL CONTEXT: genetic background: das1 deletion; temperature: 30 C

# MONOMER SEQUENCE, ASSAY TARGET, protein stability index
rows = [
    ("LHSDHLRIILRI", "Saccharomyces cerevisiae", 0.567),
    ("LVLGVEVCFVLG", "Saccharomyces cerevisiae", 0.177),
    ("PFFFSFILVLFW", "Saccharomyces cerevisiae", 0.219),
    ("SHPAPPSPPPSP", "Saccharomyces cerevisiae", 0.384),
    ("RDGAHFLLILVC", "Saccharomyces cerevisiae", 0.176),
    ("LFYVCPFVCFLC", "Saccharomyces cerevisiae", 0.516),
    ("ECCKRFCCRFVA", "Saccharomyces cerevisiae", 0.644),
    ("GIFVRIVCIDVA", "Saccharomyces cerevisiae", 0.178),
    ("RVCVFVLFGLCF", "Saccharomyces cerevisiae", 0.324),
    ("RRGLIFFLCCPA", "Saccharomyces cerevisiae", 0.336),
    ("YRKKIKNIWLRW", "Saccharomyces cerevisiae", 0.475),
    ("GFFFWTMCFWVV", "Saccharomyces cerevisiae", 0.303),
    ("DAIVLGSVVVCR", "Saccharomyces cerevisiae", 0.393),
    ("CSSLIMIITCVN", "Saccharomyces cerevisiae", 0.244),
    ("RYRVRIVVFGLV", "Saccharomyces cerevisiae", 0.365),
    ("LLLLRCLWISHA", "Saccharomyces cerevisiae", 0.319),
    ("FCCSVFCFLCLY", "Saccharomyces cerevisiae", 0.505),
    ("GRWLYSACVALN", "Saccharomyces cerevisiae", 0.596),
    ("VTLVIYVLVQLT", "Saccharomyces cerevisiae", 0.156),
]

====

- Test system: Saccharomyces cerevisiae
- ASSAY DETAILS: protein stability index of tFT-peptide fusion (C-terminal peptide) (PSI (0-1 scale)); higher = more stable (slower turnover)
- EXPERIMENTAL CONTEXT: genetic background: das1 deletion; temperature: 30 C
Classify as follows. Reported protein stability index greater than or equal to 0.7: 1. Reported protein stability index below: 0.

# MONOMER SEQUENCE, ASSAY TARGET, QUALITATIVE LABEL
measured = [
    ("ASREREKRRQSE [VAN1 C-terminal 12 aa]", "Saccharomyces cerevisiae", 1),
    ("LYVCIYISAFIK [FYV12 C-terminal 12 aa]", "Saccharomyces cerevisiae", 0),
    ("PGVMLGRWKVTA [VPS61 C-terminal 12 aa]", "Saccharomyces cerevisiae", 0),
    ("QEGTFKRLALPA [THI11 C-terminal 12 aa]", "Saccharomyces cerevisiae", 0),
]

====

# protein stability index values compiled below
- Test system: Saccharomyces cerevisiae
- ASSAY DETAILS: protein stability index of tFT-peptide fusion (C-terminal peptide) (PSI (0-1 scale)); higher = more stable (slower turnover)
- EXPERIMENTAL CONTEXT: genetic background: wild type; temperature: 30 C
MEASURED ATTRIBUTE: protein stability index

# MONOMER SEQUENCE, ASSAY RESULT
data = [
    ("GLFCGLGVGTCG", 0.621),
    ("GFIDGSTVRTCL", 0.64),
    ("FFPFHPHVLRLL", 0.282),
    ("DSWMKRPNKGQE", 0.698),
    ("HSSLHLTRALCL", 0.677),
    ("LHETKRQKKRKR", 0.719),
    ("AWGLDGCQLCFS", 0.751),
    ("LPWGGVVVGSMV", 0.73),
    ("LWAVGVATDWGG", 0.734),
    ("SPPHAPPPVPSL", 0.751),
]
